Test system: PPARg:RXRa 30nM:10nM, anti-RXR (NR concentration 30 nM, RXRa partner concentration 10 nM)
Test: PBM binding z-score (relative to random genomic background probes); higher = stronger binding; sequences stand for … in GC…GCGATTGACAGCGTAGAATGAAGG
Param threshold (-0.2) applies to PBM binding z-score; output Met when value >= threshold, Not met when value < threshold.

Task: Is PBM binding z-score for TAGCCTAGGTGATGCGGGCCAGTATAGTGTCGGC at or above -0.2?
Output: Not met

Task: Is PBM binding z-score for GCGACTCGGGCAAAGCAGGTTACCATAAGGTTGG at or above -0.2?
Output: Not met

Task: Is PBM binding z-score for CGTCCAGGGTCATAGGAGGTCAGTGAAGACAGAT at or above -0.2?
Output: Met

Task: Is PBM binding z-score for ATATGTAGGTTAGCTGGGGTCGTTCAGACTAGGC at or above -0.2?
Output: Met
